Molecular target: Follistatin (Homo sapiens) (UniProt P19883)
Sequence (P19883 whole entry, looked up): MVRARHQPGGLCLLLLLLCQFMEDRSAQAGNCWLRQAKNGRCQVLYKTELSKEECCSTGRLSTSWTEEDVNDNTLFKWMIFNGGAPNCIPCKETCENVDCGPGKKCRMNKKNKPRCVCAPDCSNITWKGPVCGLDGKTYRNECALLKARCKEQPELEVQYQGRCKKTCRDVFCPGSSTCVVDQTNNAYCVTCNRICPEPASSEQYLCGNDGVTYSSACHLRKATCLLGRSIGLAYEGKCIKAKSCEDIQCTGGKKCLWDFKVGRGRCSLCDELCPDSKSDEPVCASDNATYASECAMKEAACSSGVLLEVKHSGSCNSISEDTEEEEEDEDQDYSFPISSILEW
Test: follistatin binders on small-molecule microarrays, primary screen, biochemical, small-molecule microarray, 635/667 nm fluorescence (AID 1132)
Settings: FST binding, 635 nm fluorescence, higher = more signal
Overview of recorded composite z-score for various molecules

Known results for molecules:
* CCCCC(=C=CC[C@@H](O)c1ccc(OCCO)cc1)C[C@@H](O)COCc1ccccc1 | 1.31
* CO[C@H]1O[C@H](CO)[C@@H](OC(=O)Nc2ccc(C(F)(F)F)cc2)[C@H](OC(=O)Nc2ccc3c(c2)OCO3)[C@H]1OC(=O)Nc1ccc2c(c1)OCO2 | 0.977
* C[C@H]1ON(c2ccc(C(=O)OC(C)(C)C)cc2)[C@@H](c2ccc(O)cc2)[C@@H]1C(=O)N1C(=O)OC[C@@H]1c1ccccc1 | 1.22
* O=C(NC1CC1)[C@@H]1c2ccccc2C(=O)N(Cc2ccccc2)[C@H]1c1ccc(CO)cc1 | 0.665
* Cc1c(NC(=O)/C(C#N)=C/C=C/c2ccccc2[N+](=O)[O-])c(=O)n(-c2ccccc2)n1C | 0.771

Result for Cc1ccc(S[C@]2(C(=O)NCC(C)C)CC(=O)N(Cc3ccccc3Cl)[C@@H]2c2ccc(CO)cc2I)cc1 , tested on Follistatin (Homo sapiens) (UniProt P19883), composite z-score: -0.142

Recorded composite z-score for COC(=O)[C@]1(CCS(=O)(=O)c2ccccc2)N=C(c2ccc(OCCCO)cc2)O[C@@H]1c1ccccc1CN=[N+]=[N-] on Follistatin (Homo sapiens) (UniProt P19883) was 1.35

----------
Measured z-score, listed per entry for reference.
Assay: HepG2 cell viability effects, profiling panel, calcein-AM fluorescence, 48 h, basal (AID 1164); note: test concentration not given here
Conditions: higher = more signal

Kindly note the recorded z-score for Cc1ccc(S[C@]2(C(=O)NC3CC3)CC(=O)N(Cc3ccccc3Cl)[C@@H]2c2ccc(CO)cc2I)cc1 , which is 0.556

According to the records, this compound CCCN1C(=O)[C@]2(Cc3ccccc3)N=C(c3ccc(OCCCO)cc3)O[C@@H]2c2ccccc21 displays z-score of -1.26

Reported z-score for COc1ccccc1CN1C(=O)c2ccccc2[C@@H](C(=O)NC(C)C)[C@@H]1c1ccc(CO)cc1 was 1.95

----------
Biological target: Pro-neuregulin-1, membrane-bound isoform (Homo sapiens) (UniProt Q02297)
Sequence (Q02297 whole entry, looked up, canonical isoform): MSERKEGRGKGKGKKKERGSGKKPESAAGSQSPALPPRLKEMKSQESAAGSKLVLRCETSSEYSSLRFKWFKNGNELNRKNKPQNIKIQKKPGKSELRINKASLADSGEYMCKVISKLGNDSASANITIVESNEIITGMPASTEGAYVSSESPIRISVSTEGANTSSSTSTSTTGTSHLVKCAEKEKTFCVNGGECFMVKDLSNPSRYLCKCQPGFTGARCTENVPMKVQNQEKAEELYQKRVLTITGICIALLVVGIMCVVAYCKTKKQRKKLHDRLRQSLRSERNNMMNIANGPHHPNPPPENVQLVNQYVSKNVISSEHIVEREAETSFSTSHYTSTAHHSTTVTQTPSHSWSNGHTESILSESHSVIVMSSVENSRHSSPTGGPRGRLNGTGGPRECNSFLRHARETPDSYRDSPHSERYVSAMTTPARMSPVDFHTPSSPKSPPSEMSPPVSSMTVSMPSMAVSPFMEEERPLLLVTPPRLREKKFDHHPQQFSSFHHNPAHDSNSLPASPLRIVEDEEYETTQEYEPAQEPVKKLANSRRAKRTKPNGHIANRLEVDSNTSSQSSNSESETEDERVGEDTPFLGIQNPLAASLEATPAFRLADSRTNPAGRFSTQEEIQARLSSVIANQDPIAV
Experiment: NRG1 binders on small-molecule microarrays, primary screen, psychiatric disease protein project, biochemical, small-molecule microarray, fluorescence 635/667 (AID 1075);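 note: score combines 667 nm spot fluorescence with signal to noise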
Conditions: NRG1 binding, 635 nm fluorescence, higher = more signal
TEST_READOUT: composite z-score
Form rule: numeric answer, no unit written next to it.

Below, each entry is followed by its recorded composite z-score result.
- COC(=O)C(CC#Cc1ccc2c(c1)[C@]1(C(=O)N2)[C@H](C(=O)O)[C@H]2C(=O)O[C@H](c3ccccc3)[C@H](c3ccccc3)N2[C@@H]1c1ccccc1OCCO)C(=O)OC: 1.27
- CC(C)CCC[C@@H](C)[C@H]1CC[C@@]2(C)C3=C(CC[C@]12C)[C@@]1(C)CC[C@H](OC(=O)c2ccc(Br)cc2)C(C)(C)C1CC3 (some centres not stated): 0.0933
- O=C1c2ccccc2[C@@]2(Cc3ccccc3N(C3CC3)C2=O)[C@H](c2ccc(CO)cc2)N1C1CCCCC1: 0.123

Value of composite z-score reported for the molecule O=C1NC(=O)C2C1C=CC(C(O)c1ccc3c(c1)OCO3)N2Nc1ccccn1 (configuration not stated) is 1.91

The reported value for COCCOC(=O)N1C(=O)[C@@]2(c3cc(C#CCC(C(=O)OC)C(=O)OC)ccc31)[C@H](c1ccc(OCCO)cc1)N1[C@H](c3ccccc3)[C@H](c3ccccc3)OC(=O)[C@H]1[C@@H]2C(=O)N1CCN(c2ncccn2)CC1 in terms of composite z-score is 1.64

composite z-score in this record for C=CCC(OC(C)=O)[C@@H]1[C@@H](N(Cc2ccc(-c3ccccc3)cc2)C(=O)c2cccc3ccccc23)c2cc(OCCCO)ccc2N1C(=O)Cc1ccc2ccccc2c1 (some centres not stated) : -0.278

Record COC(=O)[C@@]1(Cc2ccc(OC)cc2)[C@H]2c3cc(C(=O)N(C)C)n(Cc4ccccc4)c3C[C@H]2CN1C(=O)c1ccccc1 . Reported composite z-score: 1.11
